Molecular target: T1, biotinylated huIL-23R-IgG (human, UniProt Q5VWK5 24-353, biotinylated)
T1 construct: not shown: human IgG1 Fc
T1 sequence: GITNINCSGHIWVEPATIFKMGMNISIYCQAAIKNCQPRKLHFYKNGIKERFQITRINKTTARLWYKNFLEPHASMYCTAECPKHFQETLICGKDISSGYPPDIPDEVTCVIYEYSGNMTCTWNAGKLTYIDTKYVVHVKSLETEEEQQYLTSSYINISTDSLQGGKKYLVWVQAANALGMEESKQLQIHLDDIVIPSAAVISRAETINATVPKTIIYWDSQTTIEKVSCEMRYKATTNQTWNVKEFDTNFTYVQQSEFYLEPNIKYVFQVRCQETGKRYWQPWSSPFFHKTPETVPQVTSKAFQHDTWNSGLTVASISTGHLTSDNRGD
Test: ECL binding assay, periplasmic Fab extracts, biotinylated huIL-23R-IgG; AUC vs parental 8B10 Fab
endpoint: Binding (% of w.t.)

chimeric 8B10 Fab, VH N52A (Fab, V domains shown, Rat V domains with human CH1 and CL; E. coli periplasmic extract) VH: EVKLVESGGGLEQPKGSLKLSCTVSGFDFNSYGMSWVRQAPGKGLDLVADIASKSYNYATYYADSVKDRFTISRDDSQSMVYLEMDNLKTEDTALYYCTVHHSDYFEYWGQGVMVTVSS VL: DIQMTQSPASLSASLGETVSIECLASEDIYNNLAWYQQKPGKSPQLLIYHASSLQDGVPSRFSGSGSGTQYSLKINSLESEDAATYFCLQDSEYPPTFGGGTKLELKR; 38.7 % of w.t.

// below: Binding (% of w.t.) requested for another binder
Inquiry: Fill in: Binding (% of w.t.) of chimeric 8B10 Fab, VL N32A (Fab, V domains shown, Rat V domains with human CH1 and CL; E. coli periplasmic extract) VH: EVKLVESGGGLEQPKGSLKLSCTVSGFDFNSYGMSWVRQAPGKGLDLVADINSKSYNYATYYADSVKDRFTISRDDSQSMVYLEMDNLKTEDTALYYCTVHHSDYFEYWGQGVMVTVSS VL: DIQMTQSPASLSASLGETVSIECLASEDIYNALAWYQQKPGKSPQLLIYHASSLQDGVPSRFSGSGSGTQYSLKINSLESEDAATYFCLQDSEYPPTFGGGTKLELKR is ___
Reply text: 13.4 % of w.t.
